ASSAY_SYSTEM: PP2Cα (Homo sapiens)
Sequence (P35813 whole entry, species assumed): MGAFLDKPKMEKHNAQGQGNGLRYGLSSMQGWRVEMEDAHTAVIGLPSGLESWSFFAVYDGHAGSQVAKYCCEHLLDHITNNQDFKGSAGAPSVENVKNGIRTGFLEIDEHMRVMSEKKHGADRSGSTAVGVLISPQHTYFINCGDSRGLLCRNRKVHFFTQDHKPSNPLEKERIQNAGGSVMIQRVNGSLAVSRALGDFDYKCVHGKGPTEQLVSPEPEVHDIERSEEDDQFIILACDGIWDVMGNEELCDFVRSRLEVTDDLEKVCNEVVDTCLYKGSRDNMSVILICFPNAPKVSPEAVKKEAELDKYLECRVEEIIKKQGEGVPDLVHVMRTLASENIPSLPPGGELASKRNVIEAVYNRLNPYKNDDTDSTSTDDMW
ASSAY_OVERVIEW: Phosphatase assay with PP2Cα
MEASUREMENT_SETUP: read-out: Ki (μM) PP2Cα; Table 2; NI = no inhibition observed
QUANTITY_KIND: Ki

The examples below pair each entry with its known result.
Problem: GET /values?readout=Ki&item= CCC[C@@H](C)Cc1c(-c2ccc(OP(=O)(O)O)c(Cl)c2)c(C(N)=O)c(CCc2ccc(Cl)cc2)n1CCCOP(=O)(O)O
Solution: > 100 µM

Problem: Ok, now CCC[C@H](C)Cc1c(-c2ccc(OP(=O)(O)O)c(Cl)c2)c(C(N)=O)c(CCc2ccc(Cl)cc2)n1CCCOP(=O)(O)O
Solution: > 100 µM

The record that follows has no Ki shown yet.
Problem: GET /values?readout=Ki&item= CCCC(C)Cc1c(-c2ccc(OP(=O)(O)O)c(Cl)c2)c(C(N)=O)c(CCc2ccc(Cl)cc2)n1CCCOP(=O)(O)O (stereo not drawn)
Solution: > 100 µM

====

Could you please report measured pKi for the items listed next?
ASSAY_SYSTEM: human Wip1 protein (rWip1, catalytic domain, residues 1-420) (Homo sapiens)
Sequence (O15297 1-420): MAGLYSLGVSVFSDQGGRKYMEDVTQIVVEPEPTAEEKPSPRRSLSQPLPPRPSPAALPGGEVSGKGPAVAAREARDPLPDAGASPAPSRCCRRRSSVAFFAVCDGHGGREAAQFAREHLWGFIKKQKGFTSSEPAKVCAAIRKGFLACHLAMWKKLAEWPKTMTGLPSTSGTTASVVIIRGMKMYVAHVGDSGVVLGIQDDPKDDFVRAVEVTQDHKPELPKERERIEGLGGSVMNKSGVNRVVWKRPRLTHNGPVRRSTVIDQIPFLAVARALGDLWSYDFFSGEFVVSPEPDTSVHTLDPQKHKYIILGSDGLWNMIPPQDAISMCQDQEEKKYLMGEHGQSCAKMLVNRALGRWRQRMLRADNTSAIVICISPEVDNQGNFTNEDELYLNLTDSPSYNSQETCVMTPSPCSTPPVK
ASSAY_OVERVIEW: Wip1 phosphatase assay (malachite green/molybdate-based)
MEASUREMENT_SETUP: pH 7.5
pKi: −log10 of the molar value.

Problem: GET /values?readout=pKi&item= CCCc1c(-c2ccc(OP(=O)(O)O)cc2)c(C(N)=O)c(C)n1CCOP(=O)(O)O [Compound 2]
Solution: < 4.00

// input: 4 compounds below; output: pKi for each
1. CCCCC(C)c1c(C(N)=O)c(-c2ccc(OP(=O)(O)O)c(Cl)c2)c(C)n1CCCOP(=O)(O)O (centres unmarked) [Compound 14]
2. CCc1c(-c2ccc(OP(=O)(O)O)cc2)c(C(N)=O)c(C)n1CCOP(=O)(O)O [Compound 1]
3. CCCC(C)Cc1c(-c2ccc(OP(=O)(O)O)c(Cl)c2)c(C(N)=O)c(C)n1CCCCOP(=O)(O)O (centres unmarked) [Compound 11]
4. CCCC(C)Cc1c(-c2ccc(OP(=O)(O)O)c(Cl)c2)c(C(=O)NCCC(N)=O)c(C)n1CCCOP(=O)(O)O (centres unmarked) [Compound 12]

Solution:
["< 4.00", "< 4.00", "< 4.00", "< 4.00"]

====

ASSAY_SYSTEM: human Wip1 protein (rWip1, catalytic domain, residues 1-420) (Homo sapiens, UniProt O15297)
ASSAY_OVERVIEW: Wip1 phosphatase assay (malachite green/molybdate-based)
pKi: −log10 of the molar value.
Note to self: values exactly at 5 are Condition met. So pKi at or above 5 is Condition met, below is Condition not met.

Problem: In plain terms: is recorded pKi at least 5 for Cc1c(C(N)=O)c(-c2ccc(OP(=O)(O)O)c(Cl)c2)c(CC(C)C)n1CCOP(=O)(O)O ?
Solution: Condition not met

Problem: Ok, now CCCC(C)Cc1c(-c2ccc(OP(=O)(O)O)cc2)c(C(N)=O)c(CC(C)C)n1CCCOP(=O)(O)O (stereo not drawn)
Solution: Condition not met

Problem: Ok, now CCCCCc1c(-c2ccc(OP(=O)(O)O)c(Cl)c2)c(C(N)=O)c(C)n1CCOP(=O)(O)O
Solution: Condition not met

Problem: Ok, now CCCC(C)Cc1c(-c2ccc(OP(=O)(O)O)c(Cl)c2)c(C(=O)NC(CC(C)C)C(N)=O)c(C)n1CCCOP(=O)(O)O (stereo not drawn)
Solution: Condition not met

Problem: Ok, now CCCC(C)Cc1c(-c2ccc(OP(=O)(O)O)cc2)c(C(N)=O)c(C)n1CCCOP(=O)(O)O (stereo not drawn)
Solution: Condition not met

Pending compound:
Problem: In plain terms: is recorded pKi at least 5 for CCC[C@H](C)Cc1c(-c2ccc(OP(=O)(O)O)c(Cl)c2)c(C(N)=O)c(CCc2ccc(Cl)cc2)n1CCCOP(=O)(O)O ?
Solution: Condition met
